This listing pairs molecules with measured IC50.
# MEASURED_ON: PD-1-Ig binding to PD-L1-TVMV-His (PD-L1-His) (Homo sapiens, UniProt Q9NZQ7)
# Construct: hPDL1(19-239)-TVMV-His; made in house; host or cells: HEK293T cells
# Sequence (Q9NZQ7 with tags, fused parts or gaps): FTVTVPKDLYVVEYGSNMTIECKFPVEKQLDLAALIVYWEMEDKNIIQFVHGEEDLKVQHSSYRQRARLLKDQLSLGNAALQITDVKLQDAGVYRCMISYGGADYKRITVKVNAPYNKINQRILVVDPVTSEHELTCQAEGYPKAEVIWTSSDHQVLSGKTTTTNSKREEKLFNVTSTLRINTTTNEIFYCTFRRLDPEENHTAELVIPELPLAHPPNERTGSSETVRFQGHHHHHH
# PROTOCOL_SUMMARY: PD-1/PD-L1 Homogenous Time-Resolved Fluorescence (HTRF) binding assay
# ASSAY_CONTEXT: PD-1-Ig (20 nM) / PD-L1-His (10 nM); range classes

// below: answered molecules
INSERT INTO results (chemical_smiles, observed_result) VALUES
  ('CCCC[C@H]1C(=O)N(C)[C@@H](CCCC)C(=O)N[C@@H](CCC(=O)O)C(=O)N[C@H](C(=O)NCC(N)=O)CNCC(=O)N[C@@H](Cc2ccc(O)cc2)C(=O)N(C)[C@@H](C)C(=O)N[C@@H](CC(N)=O)C(=O)N2CCC[C@H]2C(=O)N[C@@H](CCC(N)=O)C(=O)N[C@@H](CCC(=O)O)C(=O)N2C[C@H](O)C[C@H]2C(=O)N[C@@H](Cc2c[nH]c3ccccc23)C(=O)N[C@@H](CC(N)=O)C(=O)N[C@@H](Cc2cn(CC(=O)O)c3ccccc23)C(=O)N1C', '10 to 99 nM'),
  ('CCCC[C@H]1C(=O)N(C)[C@@H](CCCC)C(=O)N[C@@H](CC(C)C)C(=O)N[C@H](C(=O)NCC(N)=O)CNCC(=O)N[C@@H](Cc2ccc(F)cc2)C(=O)N(C)[C@@H](C)C(=O)N[C@@H](CC(N)=O)C(=O)N2CCC[C@H]2C(=O)N[C@@H](CCC(N)=O)C(=O)N[C@@H](CCC(=O)O)C(=O)N2C[C@H](O)C[C@H]2C(=O)N[C@@H](Cc2c[nH]c3ccccc23)C(=O)N[C@@H](CC(N)=O)C(=O)N[C@@H](Cc2cn(CC(=O)O)c3ccccc23)C(=O)N1C', '10 to 99 nM'),
  ('CCCC[C@H]1C(=O)N(C)[C@@H](CCCC)C(=O)N[C@@H](CC(C)C)C(=O)N[C@H](C(N)=O)COCC(=O)N[C@@H](Cc2ccc(C)cc2)C(=O)N2CCCC[C@H]2C(=O)N[C@@H](CC(N)=O)C(=O)N2CCC[C@H]2C(=O)N[C@@H](CN)C(=O)N[C@@H](CCC(=O)O)C(=O)N2C[C@H](O)C[C@H]2C(=O)N[C@@H](Cc2c[nH]c3ccccc23)C(=O)N[C@@H](CCN)C(=O)N[C@@H](Cc2cn(CC(=O)O)c3ccccc23)C(=O)N1C', '1 to 9.9 nM'),
  ('CCCC[C@H]1C(=O)N(C)[C@@H](CCCC)C(=O)N[C@@H](CC(C)C)C(=O)N[C@H](C(N)=O)CNCC(=O)N[C@@H](Cc2ccc(F)cc2)C(=O)N2CCCC[C@H]2C(=O)N[C@@H](CC(=O)O)C(=O)N2CCC[C@H]2C(=O)N[C@@H](CCC(N)=O)C(=O)N[C@@H](CC(=O)O)C(=O)N2C[C@H](O)C[C@H]2C(=O)N[C@@H](Cc2c[nH]c3ccccc23)C(=O)N[C@@H](CC(N)=O)C(=O)N[C@@H](Cc2cn(CC(=O)O)c3ccccc23)C(=O)N1C', '1 to 9.9 nM'),
  ('CCCC[C@H]1C(=O)N(C)[C@@H](CCCC)C(=O)N[C@@H](CC(C)C)C(=O)N[C@H](C(=O)NCC(N)=O)CNCC(=O)N[C@@H](Cc2ccc(F)cc2)C(=O)N(C)[C@@H](C)C(=O)N[C@@H](CC(=O)O)C(=O)N2CCC[C@H]2C(=O)N[C@@H](CCC(N)=O)C(=O)N[C@@H](CCC(=O)O)C(=O)N2C[C@H](O)C[C@H]2C(=O)N[C@@H](Cc2c[nH]c3ccccc23)C(=O)N[C@@H](CC(N)=O)C(=O)N[C@@H](Cc2cn(CC(=O)O)c3ccccc23)C(=O)N1C', '1 to 9.9 nM'),
  ('CCCC[C@H]1C(=O)N(C)[C@@H](CCCC)C(=O)N[C@@H](CCC(=O)O)C(=O)N[C@H](C(=O)NCC(N)=O)CNCC(=O)N[C@@H](Cc2ccc(O)cc2)C(=O)N(C)[C@@H](C)C(=O)N[C@@H](CC(N)=O)C(=O)N2CCC[C@H]2C(=O)N[C@@H](CCC(N)=O)C(=O)N[C@@H](CCC(N)=O)C(=O)N2C[C@H](O)C[C@H]2C(=O)N[C@@H](Cc2c[nH]c3ccccc23)C(=O)N[C@@H](CC(N)=O)C(=O)N[C@@H](Cc2cn(CC(=O)O)c3ccccc23)C(=O)N1C', '10 to 99 nM'),
  ('CCCC[C@H]1C(=O)N(C)[C@@H](CCCC)C(=O)N[C@@H](CC(C)C)C(=O)N[C@H](C(N)=O)CNCC(=O)N[C@@H](Cc2ccc(O)cc2)C(=O)N2CCCC[C@H]2C(=O)N[C@@H](CC(=O)O)C(=O)N2CCC[C@H]2C(=O)N[C@@H](CCC(N)=O)C(=O)N[C@@H](CC(=O)O)C(=O)N2C[C@H](O)C[C@H]2C(=O)N[C@@H](Cc2c[nH]c3ccccc23)C(=O)N[C@@H](CC(N)=O)C(=O)N[C@@H](Cc2cn(CC(=O)O)c3ccccc23)C(=O)N1C', '1 to 9.9 nM'),
  ('CCCC[C@H]1C(=O)N(C)[C@@H](CCCC)C(=O)N[C@@H](CCC(=O)O)C(=O)N[C@H](C(N)=O)CNCC(=O)N[C@@H](Cc2ccc(F)cc2)C(=O)N2CCCC[C@H]2C(=O)N[C@@H](CC(N)=O)C(=O)N2CCC[C@H]2C(=O)N[C@@H](CCC(N)=O)C(=O)N[C@@H](CCC(N)=O)C(=O)N2C[C@H](O)C[C@H]2C(=O)N[C@@H](Cc2c[nH]c3ccccc23)C(=O)N[C@@H](CC(N)=O)C(=O)N[C@@H](Cc2cn(CC(=O)O)c3ccccc23)C(=O)N1C', '1 to 9.9 nM');

Observed IC50 on PD-1-Ig binding to PD-L1-TVMV-His (PD-L1-His) (Homo sapiens, UniProt Q9NZQ7), entry CCCC[C@H]1C(=O)N(C)[C@@H](CCCC)C(=O)N[C@@H](CCC(=O)O)C(=O)N[C@H](C(=O)NCC(N)=O)CNCC(=O)N[C@@H](Cc2ccc(F)cc2)C(=O)N(C)[C@@H](C)C(=O)N[C@@H](CC(N)=O)C(=O)N2CCC[C@H]2C(=O)N[C@@H](CCC(N)=O)C(=O)N[C@@H](CCC(=O)O)C(=O)N2C[C@H](O)C[C@H]2C(=O)N[C@@H](Cc2c[nH]c3ccccc23)C(=O)N[C@@H](CC(N)=O)C(=O)N[C@@H](Cc2cn(CC(=O)O)c3ccccc23)C(=O)N1C , equals 10 to 99 nM

---

# MEASURED_ON: PD-1-Ig binding to PD-L1-TVMV-His (PD-L1-His) (Homo sapiens, UniProt Q9NZQ7)
# Construct: hPDL1(19-239)-TVMV-His; made in house; host or cells: HEK293T cells
# PROTOCOL_SUMMARY: PD-1/PD-L1 Homogenous Time-Resolved Fluorescence (HTRF) binding assay
# ASSAY_CONTEXT: PD-1-Ig (20 nM) / PD-L1-His (10 nM); range classes
pIC50: −log10 of the molar value. Non-standard residues stand in square brackets, D forms with d. Residues, ends and D or L forms follow the SMILES beside them. NMeNle = CCCC[C@H](NC)C(=O)O; NMeA = CN[C@@H](C)C(=O)O; AEA = NCCOCC(=O)O
// reported pIC50 for each item listed

Short answer for CCCC[C@H]1C(=O)N(C)[C@@H](CCCC)C(=O)N[C@@H](CC(C)C)C(=O)N[C@H](C(N)=O)CNCC(=O)N[C@@H](Cc2ccc(O)cc2)C(=O)N2CCCC[C@H]2C(=O)N[C@@H](CC(N)=O)C(=O)N2CCC[C@H]2C(=O)N[C@@H](Cc2c[nH]cn2)C(=O)N[C@@H](CC(=O)O)C(=O)N2C[C@H](O)C[C@H]2C(=O)N[C@@H](Cc2c[nH]c3ccccc23)C(=O)N[C@@H](C)C(=O)N[C@@H](Cc2cn(CC(=O)O)c3ccccc23)C(=O)N1C : pIC50 was 8.00 to 9.00

Entry CCCC[C@H]1C(=O)N(C)[C@@H](CCCC)C(=O)N[C@@H](CC(C)C)C(=O)N[C@H](C(=O)NCC(N)=O)CNCC(=O)N[C@@H](Cc2ccc(F)cc2)C(=O)N(C)[C@@H](C)C(=O)N[C@@H](CC(N)=O)C(=O)N2CCC[C@H]2C(=O)N[C@@H](CCC(N)=O)C(=O)N[C@@H](CC(=O)O)C(=O)N2C[C@H](O)C[C@H]2C(=O)N[C@@H](Cc2c[nH]c3ccccc23)C(=O)N[C@@H](CC(N)=O)C(=O)N[C@@H](Cc2cn(CC(=O)O)c3ccccc23)C(=O)N1C — recorded pIC50 = 7.00 to 8.00

Briefly, pIC50 measured for CCCC[C@H]1C(=O)N(C)[C@@H](CCCC)C(=O)N[C@@H](CC(C)C)C(=O)N[C@H](C(=O)NCC(N)=O)CNCC(=O)N[C@@H](Cc2ccc(O)cc2)C(=O)N(C)[C@@H](C)C(=O)N[C@@H](CC(N)=O)C(=O)N2CCC[C@H]2C(=O)N[C@@H](CCC(N)=O)C(=O)N[C@@H](CC(C)C)C(=O)N2C[C@H](O)C[C@H]2C(=O)N[C@@H](Cc2c[nH]c3ccccc23)C(=O)N[C@@H](CC(N)=O)C(=O)N[C@@H](Cc2cn(CC(=O)O)c3ccccc23)C(=O)N1C : 8.00 to 9.00

Entry CCCC[C@H]1C(=O)N(C)[C@@H](CCCC)C(=O)N[C@@H](C)C(=O)N[C@H](C(=O)NCC(N)=O)CNCC(=O)N[C@@H](Cc2ccc(O)cc2)C(=O)N(C)[C@@H](C)C(=O)N[C@@H](CC(=O)O)C(=O)N2CCC[C@H]2C(=O)N[C@@H](Cc2cnc[nH]2)C(=O)N[C@@H](CCC(N)=O)C(=O)N2C[C@H](O)C[C@H]2C(=O)N[C@@H](Cc2c[nH]c3ccccc23)C(=O)N[C@@H](CO)C(=O)N[C@@H](Cc2cn(CC(=O)O)c3ccccc23)C(=O)N1C — recorded pIC50 = 8.00 to 9.00

The compound listed as CCCC[C@H]1C(=O)N(C)[C@@H](CCCC)C(=O)NC(CC(C)C)C(=O)N[C@H](C(=O)NCC(N)=O)CNCC(=O)N[C@@H](Cc2ccc(O)cc2)C(=O)N(C)[C@@H](C)C(=O)N[C@@H](CC(N)=O)C(=O)N2CCC[C@H]2C(=O)N[C@@H](CC(N)=O)C(=O)N[C@@H](CC(C)C)C(=O)N2CCC[C@H]2C(=O)N[C@@H](Cc2c[nH]c3ccccc23)C(=O)N[C@@H](CC(N)=O)C(=O)N[C@@H](Cc2c[nH]c3ccccc23)C(=O)N1C (stereo partly drawn) shows pIC50 equal to 7.00 to 8.00

So, CCCC[C@H]1C(=O)N(C)[C@@H](CCCC)C(=O)N[C@@H](CCC(=O)O)C(=O)N[C@H](C(N)=O)CNCC(=O)N[C@@H](Cc2ccc(F)cc2)C(=O)N2CCCC[C@H]2C(=O)N[C@@H](CC(N)=O)C(=O)N2CCC[C@H]2C(=O)N[C@@H](CCC(N)=O)C(=O)N[C@@H](CC(C)C)C(=O)N2C[C@H](O)C[C@H]2C(=O)N[C@@H](Cc2c[nH]c3ccccc23)C(=O)N[C@@H](CC(N)=O)C(=O)N[C@@H](Cc2cn(CC(=O)O)c3ccccc23)C(=O)N1C ? Its pIC50 was 8.00 to 9.00

// CCCC[C@H]1C(=O)N(C)[C@@H](CCCC)C(=O)N[C@@H](CC(C)C)C(=O)NCCOCC(=O)N[C@@H](Cc2ccccc2)C(=O)N(C)[C@@H](C)C(=O)N[C@@H](CC(C)C)C(=O)N2CCC[C@H]2C(=O)NCC(=O)N[C@@H](CC(C)C)C(=O)N2CCC[C@H]2C(=O)N[C@@H](Cc2ccccc2)C(=O)NCC(=O)N[C@@H](Cc2ccccc2)C(=O)N1C [Example 10500] (cyclo([AEA]F[NMeA]LPGLPFGF[NMeNle][NMeNle]L)) : pIC50 value = 5.00 to 7.00

Summary for this compound, CCCC[C@H]1C(=O)N(C)[C@@H](CCCC)C(=O)N[C@@H](CCC(=O)O)C(=O)N[C@H](C(=O)NCC(N)=O)CNCC(=O)N[C@@H](Cc2ccc(F)cc2)C(=O)N(C)[C@@H](C)C(=O)N[C@@H](CC(N)=O)C(=O)N2CCC[C@H]2C(=O)N[C@@H](CCC(N)=O)C(=O)N[C@@H](CC(C)C)C(=O)N2C[C@H](O)C[C@H]2C(=O)N[C@@H](Cc2c[nH]c3ccccc23)C(=O)N[C@@H](CC(N)=O)C(=O)N[C@@H](Cc2cn(CC(=O)O)c3ccccc23)C(=O)N1C : pIC50 is 7.00 to 8.00

The reported value for CCCC[C@H]1C(=O)N(C)[C@@H](CCCC)C(=O)N[C@@H](CC(C)C)C(=O)N[C@H](C(=O)NCC(N)=O)CNCC(=O)N[C@@H](Cc2ccc(O)cc2)C(=O)N(C)[C@@H](C)C(=O)N[C@@H](CC(N)=O)C(=O)N2CCC[C@H]2C(=O)N[C@@H](CCC(N)=O)C(=O)N[C@@H](CCC(N)=O)C(=O)N2C[C@H](O)C[C@H]2C(=O)N[C@@H](Cc2c[nH]c3ccccc23)C(=O)N[C@@H](CC(N)=O)C(=O)N[C@@H](Cc2cn(CC(=O)O)c3ccccc23)C(=O)N1C in terms of pIC50 is 8.00 to 9.00
